Listed here: items and their measured OD450.
# TARGET_OR_SYSTEM: T1, human MSLN-R3-his protein (human, UniProt Q13421 487-598)
# T1 construct: Region 3 of human mesothelin, made in HEK293E cells, His-tagged; also called human MSLN-R3 protein; hMSLN-R3-his; not shown: His tag
# T1 sequence (Q13421 495-606): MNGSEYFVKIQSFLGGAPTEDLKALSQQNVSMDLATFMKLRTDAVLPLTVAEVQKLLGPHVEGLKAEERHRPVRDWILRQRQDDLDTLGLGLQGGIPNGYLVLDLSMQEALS
# ASSAY_REMARKS: ELISA on coated MSLN-R3; antibody 100 nM
Numeric only. Scale: OD450

# annotated cases, reported OD450 shown
# input binder: S009-F8-15.19 (antibody, human IgG1, kappa, V domains shown) VH: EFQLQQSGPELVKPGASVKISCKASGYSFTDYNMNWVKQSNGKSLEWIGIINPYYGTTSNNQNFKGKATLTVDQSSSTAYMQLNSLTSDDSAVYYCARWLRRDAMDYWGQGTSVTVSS VL: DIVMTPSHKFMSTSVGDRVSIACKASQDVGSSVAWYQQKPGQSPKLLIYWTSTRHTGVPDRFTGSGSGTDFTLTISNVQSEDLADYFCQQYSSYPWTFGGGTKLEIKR ; wanted: its OD450
0.08

Need OD450, item S009-F8-9.16 (antibody, human IgG1, kappa, V domains shown) VH: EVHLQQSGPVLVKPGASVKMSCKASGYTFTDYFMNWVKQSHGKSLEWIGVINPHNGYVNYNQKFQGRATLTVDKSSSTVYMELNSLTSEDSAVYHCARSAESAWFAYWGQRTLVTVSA VL: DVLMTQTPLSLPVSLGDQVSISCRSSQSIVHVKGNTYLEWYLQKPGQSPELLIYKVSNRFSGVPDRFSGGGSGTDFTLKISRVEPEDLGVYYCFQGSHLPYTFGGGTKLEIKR
2.4

***
Please look up its OD450: S009-F8-32.3 (antibody, human IgG1, kappa, V domains shown) VH: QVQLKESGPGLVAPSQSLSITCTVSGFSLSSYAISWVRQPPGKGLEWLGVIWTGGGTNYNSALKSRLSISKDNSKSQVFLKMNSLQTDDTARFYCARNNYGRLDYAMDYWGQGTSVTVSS VL: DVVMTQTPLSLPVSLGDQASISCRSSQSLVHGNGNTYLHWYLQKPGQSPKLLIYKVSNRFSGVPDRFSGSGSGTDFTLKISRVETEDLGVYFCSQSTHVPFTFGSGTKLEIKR
0.07

Cited source for all entries: patent US20250250357A1
